Exercise: for every item that follows, state its recorded refractive index.
assay_info: refractive index (Na D-line) (dimensionless)
experimental_parameters: 298.2 K; 101.33 kPa; Liquid; Standard Abbe refractometry
Output: the number by itself.

Problem: Would you kindly share the measured refractive index for CCCCC(CC)CO (centres undefined) ?
Result: 1.4293

Problem: Would you kindly share the measured refractive index for `CCCCCCCCO` ?
Result: 1.4276

Problem: Would you kindly share the measured refractive index for `O` ?
Result: 1.3324

Problem: Would you kindly share the measured refractive index for `CCCC(=O)O` ?
Result: 1.3977
